System: 454973-116-R2-J3-PDC spheroids, viability, % test/control;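 note: spheroids exposed to compounds for seven days; 100% = DMSO vehicle control viability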
Assay: Anticancer human tumor 454973-116-R2-J3-PDC patient-derived pancreatic carcinoma cell line growth inhibition [GQUAD]
Conditions: second compound 3.16 µM; first compound 0.316 µM; hits give low values; spheroids with HUVEC and MSC
Quick rule for you: viability, T/C under 30% gets 1 (yes), anything else gets 0 (no).

Data request: Take the compound O=C(NO)c1cnc(N2CCN(S(=O)(=O)c3ccc4ccccc4c3)CC2)nc1 + Cc1cnc(CNC(=O)c2c(=O)c3ccc(N4CCCN(C)CC4)nc3n3c2sc2ccccc23)cn1 and say whether its viability, T/C is less than 30%.
Data returned: 1 (yes)

Data request: Take the compound CCCS(=O)(=O)Nc1ccc(F)c(C(=O)c2c[nH]c3ncc(-c4ccc(Cl)cc4)cc23)c1F + Cc1[nH]c2ccc(F)cc2c1-c1nc2c3cccnc3c3ncccc3c2[nH]1 and say whether its viability, T/C is less than 30%.
Data returned: 0 (no)

Data request: Take the compound CC1COCCN1c1cc(C2(S(C)(=N)=O)CC2)nc(-c2ccnc3[nH]ccc23)n1 (stereo not given) + Cc1cnc(CNC(=O)c2c(=O)c3ccc(N4CCCN(C)CC4)nc3n3c2sc2ccccc23)cn1 and say whether its viability, T/C is less than 30%.
Data returned: 0 (no)

Data request: Take the compound CC(=O)O[C@H]1C(=O)[C@@]2(C)[C@H]([C@H](OC(=O)c3ccccc3)[C@]3(O)C[C@H](OC(=O)[C@H](O)[C@@H](NC(=O)c4ccccc4)c4ccccc4)C(C)=C1C3(C)C)[C@]1(OC(C)=O)CO[C@@H]1C[C@@H]2O + Cc1[nH]c2ccc(F)cc2c1-c1nc2c3cccnc3c3ncccc3c2[nH]1 and say whether its viability, T/C is less than 30%.
Data returned: 1 (yes)

Data request: Take the compound COc1cccc2c1C(=O)c1c(O)c3c(c(O)c1C2=O)CC(O)(C(=O)CO)CC3OC1CC(N)C(O)C(C)O1 (stereo not given) + Cc1cnc(CNC(=O)c2c(=O)c3ccc(N4CCCN(C)CC4)nc3n3c2sc2ccccc23)cn1 and say whether its viability, T/C is less than 30%.
Data returned: 0 (no)

Data request: Take the compound CC[C@@]1(O)C(=O)OCc2c1cc1n(c2=O)Cc2cc3c(CN(C)C)c(O)ccc3nc2-1 + Cc1[nH]c2ccc(F)cc2c1-c1nc2c3cccnc3c3ncccc3c2[nH]1 and say whether its viability, T/C is less than 30%.
Data returned: 1 (yes)

Data request: Take the compound CC1COCCN1c1cc(C2(S(C)(=N)=O)CC2)nc(-c2ccnc3[nH]ccc23)n1 (stereo not given) + Cc1[nH]c2ccc(F)cc2c1-c1nc2c3cccnc3c3ncccc3c2[nH]1 and say whether its viability, T/C is less than 30%.
Data returned: 0 (no)

Data request: Take the compound CC(=O)O[C@H]1C(=O)[C@@]2(C)[C@H]([C@H](OC(=O)c3ccccc3)[C@]3(O)C[C@H](OC(=O)[C@H](O)[C@@H](NC(=O)c4ccccc4)c4ccccc4)C(C)=C1C3(C)C)[C@]1(OC(C)=O)CO[C@@H]1C[C@@H]2O + CN(C)c1ccc(Nc2c3ccc(NC(=O)CCN4CCCC4)cc3nc3cc(NC(=O)CCN4CCCC4)ccc23)cc1 and say whether its viability, T/C is less than 30%.
Data returned: 1 (yes)

Data request: Take the compound C=CC(=O)N1CCN(c2nc(=O)n(-c3c(C)ccnc3C(C)C)c3nc(-c4c(O)cccc4F)c(F)cc23)C(C)C1 (stereo not given) + CN(C)c1ccc(Nc2c3ccc(NC(=O)CCN4CCCC4)cc3nc3cc(NC(=O)CCN4CCCC4)ccc23)cc1 and say whether its viability, T/C is less than 30%.
Data returned: 0 (no)

Data request: Take the compound Nc1ccn(C2OC(CO)C(O)C2(F)F)c(=O)n1 (stereo not given) + Cc1[nH]c2ccc(F)cc2c1-c1nc2c3cccnc3c3ncccc3c2[nH]1 and say whether its viability, T/C is less than 30%.
Data returned: 1 (yes)
